IC50 values for Receptor-interacting serine/threonine-protein kinase 1 (Homo sapiens, UniProt Q13546) compiled from several publications are listed below.
result-type: IC50

1) C[C@H](NC(=O)c1c[nH]c2ccc(-c3ccc4nc(NC(=O)C5CCN(C)CC5)sc4c3)cc12)c1cccc(F)c1 | 100 to 1000 nM
2) NC(=O)c1cc(N2CC3CC(C(=O)N4N=CCC4c4ccccc4)CC3C2)ncn1 (centres unmarked) | 95 nM
3) Nc1nc2ccc(-c3cnc4c(c3)C(=O)N(Cc3cc(OC(F)(F)F)ccc3F)CC4)cc2s1 | 39 nM
4) CN1C(=O)C(NC(=O)c2n[nH]c(Cc3ccccc3)n2)CCc2ccc(N3CC4(CCCCC4)C3)cc21 (racemic) | 444 nM
5) Cn1cc(C(=O)N2CCCC2c2cccc(F)c2)c2cc(-c3ccc4nc(NC(=O)C5CC5)cn4n3)ccc21 (centres unmarked) | < 1 nM
6) Cn1cc(C(=O)N2CCCC2c2cc(F)ccc2F)c2cc(-c3ccn4nc(NC(=O)C5CC5)nc4c3)ccc21 (centres unmarked) | 1 to 10 nM
7) C[C@H](NC(=O)c1c[nH]c2ccc(-c3ccc4nc(NC(=O)C5CC5)[nH]c4c3)cc12)c1cccc(F)c1 | 10 to 100 nM
8) C[C@H](NC(=O)c1c[nH]c2ccc(-c3ccc4nc(NC(=O)C5CC5)nn4c3)cc12)c1cccc(F)c1 | 10 to 100 nM
9) C[C@H](NC(=O)c1cn(C)c2ccc(-c3ccn4nc(NC(=O)N5CCC[C@@H]5CO)nc4c3)cc12)c1cccc(F)c1 | 10 to 100 nM
10) COc1ccc([C@H](C)NC(=O)c2c[nH]c3ccc(-c4ccc5nc(NC(=O)C6CC6)sc5c4)cc23)cc1 | 10 to 100 nM
11) Cc1noc(C(C)NC(=O)c2nn(-c3ccccc3)c(C)cc2=O)n1 (centres unmarked) | 36900 nM
12) O=C(C1CCN(c2cncc(-c3ccccc3)n2)CC1)N1N=CC[C@H]1c1ccccc1 | 1 to 31.6 nM
13) O=C(C1CCN(c2ccc(F)cn2)CC1)N1N=CC[C@H]1c1ccccc1 | 1 to 10 nM
14) NC(=O)c1cnc(N2CCC(C(=O)N3N=CC[C@H]3c3ccccc3)CC2)cn1 | 1 to 31.6 nM

---

pIC50 values for Receptor-interacting serine/threonine-protein kinase 1 (Homo sapiens) compiled from several publications are listed below.
pIC50: −log10 of the molar value.
result-type: pIC50

1) [2H]C([2H])([2H])N1C(=O)[C@@H](NC(=O)n2cc(Cc3ccc(F)cc3)cn2)CCc2ccc(C#CC(C)(C)O)cc21 | 7.41
2) CNc1ccnc(N2CCC(C(=O)N3N=CC[C@H]3c3ccccc3)CC2)n1 | 7.50 to 9.00
3) C#Cc1cc(N2CCC(C(=O)N3N=CC[C@H]3c3cccc(C#N)c3)CC2)ncn1 | 7.50 to 9.00
4) O=C(NC1Cc2ccccc2C1)N1N=CCC1c1ccccc1 (stereo not shown) | 6.00 to 7.00
5) CC(C)C(=O)Nc1nc2cc(-c3ccc4c(c3)c(C(=O)NC(C)c3ccc(F)cc3)cn4C)ccn2n1 (stereo not shown) | 7.00 to 8.00
6) O=C(NCc1cc(F)cc(F)c1)c1c[nH]c2ccc(-c3ccc4nc(NC(=O)C5CC5)sc4c3)cc12 | 7.00 to 8.00
7) Nc1ncnn2c(-c3ccc4[nH]nc(C(=O)NCCc5cccc(F)c5)c4c3)ccc12 | 6.00 to 7.00
8) C[C@H](NC(=O)c1cn(C)c2ccc(-c3ccc4nc(NC(=O)C5CC5)nn4c3)cc12)c1cccc(F)c1 | 6.00 to 7.00
9) NC(=O)c1csc(OC2CN(C(=O)N3N=CCC3c3cc(F)cc(F)c3)C2)n1 (stereo not shown) | > 7.00
10) Cn1cc(C(=O)N2CCC[C@H]2c2ccc(F)cc2)c2cc(-c3ccn4nc(NC(=O)C5CC5)nc4c3)ccc21 | 8.00 to 9.00
11) C[C@H](NC(=O)c1c[nH]c2ccc(-c3ccc4nc(NC(=O)C5CC5)sc4n3)cc12)c1cccc(F)c1 | 7.00 to 8.00
12) O=C(NCc1cccc(C(F)(F)F)c1)c1c[nH]c2ccc(-c3ccc4nc(NC(=O)C5CC5)sc4c3)cc12 | 7.00 to 8.00
13) COc1cnc(N2CCC(C(=O)N3N=CCC3c3ccccc3)CC2)nc1 (racemic) | 7.50 to 9.00
14) N#Cc1cccc([C@@H]2CC=NN2C(=O)C2CCN(c3ccn4nccc4n3)CC2)c1 | 7.50 to 9.00
15) COc1nc(N)cc(N2CCC(C(=O)N3N=CC[C@H]3c3ccccc3)CC2)n1 | 7.50 to 9.00
16) COCC(=O)Nc1nc2ccc(-c3ccc4[nH]cc(C(=O)NCc5cccc(F)c5)c4c3)cn2n1 | 6.00 to 7.00
17) C[C@H](NC(=O)c1cn(C)c2ccc(-c3ccn4nc(NC(=O)C5CC5(F)F)nc4c3)cc12)c1cccc(F)c1 (stereo partly shown) | 7.00 to 8.00
18) N#Cc1ccc(N2CCC(C(=O)N3N=CC[C@H]3c3ccccc3)CC2)nn1 | 7.50 to 9.00
19) CC(=O)Nc1cc(N2CCC(C(=O)N3N=CC[C@H]3c3cc(F)cc(F)c3)CC2)ncn1 | 7.50 to 9.00

---

pIC50: −log10 of the molar value.
pIC50 values for Receptor-interacting serine/threonine-protein kinase 1 (Homo sapiens, UniProt Q13546) compiled from several publications are listed below.
result-type: pIC50

1. O=C(O)c1ncnc(N2CCC(C(=O)N3N=CC[C@H]3c3cc(F)cc(F)c3)CC2)c1F | 7.50 to 9.00
2. O=C(C1CCN(c2ccc(F)cn2)CC1)N1N=CCC1c1ccccc1 (stereo not drawn) | ~7.40
3. COc1ccc([C@H](C)NC(=O)c2cn(C)c3ccc(-c4ccn5nc(NC(=O)C6CC6)nc5c4)cc23)cc1F | 6.00 to 7.00
4. Cn1cc(C(=O)N[C@H]2CCc3ccc(F)cc32)c2cc(-c3ccn4nc(NC(=O)C5CC5)nc4c3)ccc21 | 6.00 to 7.00
5. Cn1cc(C(=O)N2C(CO)CC[C@H]2c2ccc(F)cc2)c2cc(-c3ccn4nc(NC(=O)C5CC5)nc4c3)ccc21 (stereo partly drawn) | ≤ 6.00
6. COc1cccc([C@@H](C)NC(=O)c2cn(C)c3ccc(-c4ccn5nc(NC(=O)C(C)C)nc5c4)cc23)c1 | 6.00 to 7.00
7. O=C(N1CC(Cc2cccc(F)c2)C1)N1N=CCC1c1ccccc1 (stereo not drawn) | > 7.00
8. COc1ccc(CNC(=O)c2cn(C)c3ccc(-c4ccc5nc(NC(=O)C6CC6)sc5c4)cc23)cc1OC | 6.00 to 7.00
9. Cc1cccc(CNC(=O)c2c[nH]c3ccc(-c4ccc5nc(NC(=O)C6CC6)sc5c4)cc23)c1 | 7.00 to 8.00

---

IC50 values for Receptor-interacting serine/threonine-protein kinase 1 (Homo sapiens, UniProt Q13546) compiled from several publications are listed below.
result-type: IC50

1. C[C@H](NC(=O)c1cn(C)c2ccc(-c3ccn4nc(NC(=O)C5CC5)nc4c3)cc12)c1ccc(F)c(F)c1 | 1 to 10 nM
2. CCN(CC)CC(=O)Nc1nc2cc(-c3ccc4c(c3)c(C(=O)N3CCC[C@H]3c3ccc(F)cc3)cn4C)ccn2n1 | 1 to 10 nM
3. O=C(N1CC(Oc2ccc(F)cc2F)C1)N1OCC[C@H]1c1ccccc1 | < 100 nM
4. COc1cccc([C@@H](C)NC(=O)c2c[nH]c3ccc(-c4ccc5nc(NC(=O)C6CC6)sc5c4)cc23)c1 | 100 to 1000 nM
5. O=C(C1CCN(c2ncc(O)cn2)CC1)N1N=CC[C@H]1c1ccccc1 | 1 to 31.6 nM
6. O=C(O)c1ncnc(N2CCC(C(=O)N3N=CC[C@H]3c3ccccc3)CC2)c1F | ~50.1 nM
7. CC(C)C(=O)Nc1nc2cc(-c3cnc4c(c3)c(C(=O)N[C@@H](C)c3cccc(F)c3)cn4C)ccn2n1 | 1 to 10 nM
8. C[C@H](NC(=O)c1c[nH]c2ccc(-c3ccc4nc(NC(=O)C5CCOCC5)sc4c3)cc12)c1cccc(F)c1 | 10 to 100 nM

---

IC50 values for Receptor-interacting serine/threonine-protein kinase 1 (Homo sapiens, UniProt Q13546) compiled from several publications are listed below.
result-type: IC50

1) O=C(N1CC(Oc2ccc(F)cc2F)C1)N1N=CCC1c1cc(F)cc(F)c1 (stereo not drawn) | < 100 nM
2) C[C@H](NC(=O)c1c[nH]c2ncc(-c3ccc4nc(NC(=O)C5CC5)sc4c3)cc12)c1cccc(F)c1 | 100 to 1000 nM
3) N#Cc1cccc([C@@H]2CC=NN2C(=O)C2CCN(c3ncc(F)c(N)n3)CC2)c1 | 1 to 31.6 nM
4) C[C@H](NC(=O)c1c[nH]c2ccc(-c3ccc4c(N)ncnn34)cc12)c1cccc(F)c1 | 100 to 1000 nM
5) Nc1cncc(N2CCC(C(=O)N3N=CC[C@H]3c3ccccc3)CC2)n1 | 1 to 31.6 nM
6) C[C@H](NC(=O)c1c[nH]c2ccc(-c3ccc4nc(NC(=O)C5CC5)ncc4c3)cc12)c1cccc(F)c1 | 100 to 1000 nM
